Attribution: paper PMC4358367

Biological target: T1, AnkG_repeats (24 ANK repeats of rat 190 kDa ankyrin-G, residues 38–855) (rat, UniProt O70511 38-855)
T1 chain: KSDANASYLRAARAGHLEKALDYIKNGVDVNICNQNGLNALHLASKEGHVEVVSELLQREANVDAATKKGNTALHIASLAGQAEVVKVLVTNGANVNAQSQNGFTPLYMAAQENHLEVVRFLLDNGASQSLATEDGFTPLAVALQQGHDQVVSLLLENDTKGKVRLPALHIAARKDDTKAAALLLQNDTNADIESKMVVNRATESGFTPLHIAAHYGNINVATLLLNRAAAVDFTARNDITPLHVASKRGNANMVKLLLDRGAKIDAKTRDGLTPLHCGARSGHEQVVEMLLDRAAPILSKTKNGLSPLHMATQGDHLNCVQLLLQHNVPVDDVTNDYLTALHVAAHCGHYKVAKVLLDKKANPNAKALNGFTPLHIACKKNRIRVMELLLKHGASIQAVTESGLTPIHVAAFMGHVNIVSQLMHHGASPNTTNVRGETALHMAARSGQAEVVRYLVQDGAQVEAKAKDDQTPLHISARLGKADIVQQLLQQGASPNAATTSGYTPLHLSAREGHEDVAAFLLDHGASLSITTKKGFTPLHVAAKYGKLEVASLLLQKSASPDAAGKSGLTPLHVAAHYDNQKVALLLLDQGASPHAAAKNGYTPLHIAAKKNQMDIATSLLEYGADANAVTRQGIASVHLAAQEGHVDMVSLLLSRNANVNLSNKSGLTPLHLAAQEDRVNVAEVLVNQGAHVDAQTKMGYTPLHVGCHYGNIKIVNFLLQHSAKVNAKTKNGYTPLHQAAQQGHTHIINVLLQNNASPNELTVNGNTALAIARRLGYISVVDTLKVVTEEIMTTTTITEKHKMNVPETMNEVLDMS
Assay: ITC
readoutType: pKd
Scale: pKd equals -log10([C]), with [C] in mol/L.

Prompt line: State its pKd for this binder: CADQYWNEVTVIDAIPLAATEHDTMLEMSDMQVWSAGLTPSLVTAEDS (domain or fragment, mouse, UniProt Q02357-6 1577-1624, looked up, Free AS in ITC; source: E. coli BL21 (DE3), purified) [AnkR_AS (48-residue auto-inhibitory segment of AnkR, residues 1577–1624)]
Response line: 6.34
